Record form. Attribute: pIC50. Fill in for each entry.
- SYSTEM: CRBN/DDB1 protein (Homo sapiens (Human))
- Sequence (Q96SW2 whole entry, species assumed): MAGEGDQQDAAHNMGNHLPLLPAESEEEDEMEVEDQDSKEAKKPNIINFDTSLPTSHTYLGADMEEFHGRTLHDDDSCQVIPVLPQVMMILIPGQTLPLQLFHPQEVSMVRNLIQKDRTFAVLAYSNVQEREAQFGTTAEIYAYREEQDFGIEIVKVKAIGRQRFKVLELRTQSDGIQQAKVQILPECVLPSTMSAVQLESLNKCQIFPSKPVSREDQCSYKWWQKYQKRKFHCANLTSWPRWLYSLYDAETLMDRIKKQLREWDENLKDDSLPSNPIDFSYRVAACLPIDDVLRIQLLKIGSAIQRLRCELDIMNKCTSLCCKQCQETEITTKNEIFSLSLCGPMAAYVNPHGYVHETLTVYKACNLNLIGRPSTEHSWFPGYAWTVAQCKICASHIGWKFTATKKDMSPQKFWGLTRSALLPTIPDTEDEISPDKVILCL
- Sequence (Q16531 whole entry partner, species assumed): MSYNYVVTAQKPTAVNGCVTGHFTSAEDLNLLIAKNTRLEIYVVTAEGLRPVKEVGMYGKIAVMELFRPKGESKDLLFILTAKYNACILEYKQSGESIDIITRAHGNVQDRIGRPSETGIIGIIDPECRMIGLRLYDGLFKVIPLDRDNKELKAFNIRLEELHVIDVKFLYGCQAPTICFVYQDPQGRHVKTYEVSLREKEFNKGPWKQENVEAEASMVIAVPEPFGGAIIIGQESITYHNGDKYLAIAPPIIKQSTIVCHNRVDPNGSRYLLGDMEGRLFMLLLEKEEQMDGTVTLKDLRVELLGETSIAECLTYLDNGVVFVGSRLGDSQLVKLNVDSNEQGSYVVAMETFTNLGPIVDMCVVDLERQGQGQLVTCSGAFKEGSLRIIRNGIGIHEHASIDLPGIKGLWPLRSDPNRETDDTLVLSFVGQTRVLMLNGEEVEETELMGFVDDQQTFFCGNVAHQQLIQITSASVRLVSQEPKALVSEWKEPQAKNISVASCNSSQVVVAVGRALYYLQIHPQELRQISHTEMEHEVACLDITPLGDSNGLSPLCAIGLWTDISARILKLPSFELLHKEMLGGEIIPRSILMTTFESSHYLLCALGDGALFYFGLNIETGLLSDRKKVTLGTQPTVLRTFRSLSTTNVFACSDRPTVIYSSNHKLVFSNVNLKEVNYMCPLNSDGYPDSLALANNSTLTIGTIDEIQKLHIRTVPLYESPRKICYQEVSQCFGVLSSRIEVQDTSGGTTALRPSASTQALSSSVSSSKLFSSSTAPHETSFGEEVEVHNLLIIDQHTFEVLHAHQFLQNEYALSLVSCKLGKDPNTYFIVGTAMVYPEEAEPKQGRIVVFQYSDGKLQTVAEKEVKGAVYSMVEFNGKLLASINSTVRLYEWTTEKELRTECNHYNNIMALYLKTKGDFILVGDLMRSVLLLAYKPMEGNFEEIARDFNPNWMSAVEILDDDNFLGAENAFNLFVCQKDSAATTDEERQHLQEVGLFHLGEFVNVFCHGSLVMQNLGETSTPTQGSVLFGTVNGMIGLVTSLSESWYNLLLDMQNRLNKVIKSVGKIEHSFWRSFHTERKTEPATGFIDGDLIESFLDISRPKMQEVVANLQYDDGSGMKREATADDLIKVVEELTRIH
- MEASUREMENT_DESCRIPTION: Inhibition of CRBN/DDB1 protein activity, fluorescence resonance energy transfer (FRET) method with FITC-labeled thalidomide analog
- CONDITION_SUMMARY: 5.0 nM CRBN/DDB1, 50.0 nM FITC-labeled thalidomide analog, 25° C., pH 7.0
pIC50: −log10 of the molar value.

Worked cases, answers included:
O=C1CC2(CN(C(=O)c3cc4ccccc4s3)C2)C(=O)N1    5.00 to 6.00
CN(C)C(=O)c1c(C(=O)N2CC3(CC(=O)NC3=O)C2)sc2ccccc12    6.00 to 7.00
CC(=O)N1CCN(C(=O)c2sc3ccccc3c2C(=O)N2CC3(CC(=O)NC3=O)C2)CC1    > 7.00
CN(C)C(=O)c1cscc1C(=O)N1CC2(CC(=O)NC2=O)C1    6.00 to 7.00
CN(C)C(=O)c1[nH]c2ccccc2c1CN1CC2(CC(=O)NC2=O)C1    3.70 to 4.00

Hi! Can you tell me pIC50 for each of these compounds?
1. CN(C)C(=O)c1cccc(C(=O)N2CC3(CC(=O)NC3=O)C2)c1
2. CN(C)C(=O)c1c(C(=O)N2CC3(CC(=O)NC3=O)C2)c2ccccc2n1C
3. NC(=O)c1sc2ccccc2c1C(=O)N1CC2(CC(=O)NC2=O)C1

result:
5.00 to 6.00
> 7.00
6.00 to 7.00
